Target: hCA II (Homo sapiens)
Construct: gene CA2; recombinant, obtained in house
Experiment: stopped-flow CO2 hydration assay
Type: biochemical
Conditions: read-out: hCA I
Metric name: Ki

> print(dat)
                  compound.structure.string  data.value
1  Cc1ccc(S(=O)(=O)N[C@@H](C)C[Se]C(=O)Nc2cc(C)cc(C)c2)cc1    > 100 µM
